system: HOP-62 NSCLC; experiment: NCI tumour cell line growth inhibition, 48 h
Readout type: TGI

NC(=O)c1cc2ccccc2o/c1=N/O :: > 100 µM
Oc1ccc2ccccc2c1N=Nc1nccs1 :: 56.8 µM
C=CC(=O)N1CC2(CCN(c3nc(OC4CCN(CCCOC)CC4)nc4c(OCC(F)(F)F)c(-c5c(C)ccc6[nH]ncc56)c(C5CC5)cc34)CC2)C1 :: 19.6 µM
COC(=O)CN1CCSC1=NC#N :: > 100 µM
O=C1CCC(=O)N2CCCCN12 :: > 100 µM
O=C(CC1=NCCN1)c1ccccc1 :: > 750 µM

* * *

test system: DU-145 prostate; experiment: NCI tumour cell line growth inhibition, 48 h
Parameter GI50: see the listing below.
Readout type: GI50

COc1ccc(-c2cnnc3c(-c4cccc(C(F)(F)F)c4)cnn23)cc1 :: 3.97 µM
CC(C)(C)OC(=O)N1CCc2c(sc3ncnc(N/N=C/c4cccc5ccccc45)c23)C1 :: 5.51 µM
C=C1C(=O)O[C@H]2[C@H]1CC/C(Cn1cc(-c3ccc(OC)cc3)nn1)=C\CC[C@@]1(C)O[C@@H]21 :: 1.11 µM
C[C@@H]1OC(O)[C@@H](F)[C@H](O)[C@@H]1O (some centres undefined) :: > 100 µM
N#CSc1c[nH]c2cccc(/C=C/C(=O)/C=C(/C=C/c3cccc4[nH]cc(SC#N)c34)OB(F)F)c12 :: 1.1 µM
Nc1cc(N)c2nc(-c3ccccc3)c(Nc3ccc(Cl)c(Cl)c3)nc2c1 :: 16.7 µM
CC[C@@]1(O)C(=O)OCc2c1cc1n(c2=O)Cc2c-1nc1cc3c(cc1c2CCl)OCO3 :: < 0.01 µM
CC(=O)OC[C@]1(C)C=C2C(=O)[C@](C)(O)C3(CC3)C(C)=C2[C@H]1O :: 0.036 µM
N#Cc1ccc(O)c(C2=NCC(c3cccc(Oc4ccccc4)c3)O2)c1 (centres undefined) :: 1.27 µM

* * *

Parameter TGI: see the listing below.
system: HOP-92 NSCLC; experiment: NCI tumour cell line growth inhibition, 48 h
Readout type: TGI (µM)

COc1ccc(-c2cnnc3c(-c4cccc(C(F)(F)F)c4)cnn23)cc1 :: 2.85
N#CSc1c[nH]c2cccc(/C=C/C(=O)/C=C(/C=C/c3cccc4[nH]cc(SC#N)c34)OB(F)F)c12 :: 1.45
CC(=O)OC[C@]1(C)C=C2C(=O)[C@](C)(O)C3(CC3)C(C)=C2[C@H]1O :: 0.623
COC(=O)[C@]12CC[C@@H](C)[C@H](C)[C@@H]1C1=CC[C@@H]3[C@@]4(C)C/C(=N\O)[C@H](O)[C@@]5(C)COC(=C45)C[C@@]3(C)[C@]1(C)CC2 :: 10.3

* * *

tested on: SF-295 CNS; assay: NCI tumour cell line growth inhibition, 48 h
Readout type: TGI (µM)

COc1ccc(-c2cc(=O)c3c(OC)c(OC)c(OC)cc3o2)cc1 :: 96.9
COc1cc(C2=NOC(c3cc(OC)c(OC)c(OC)c3)C2)ccc1OCCCCOc1cc2c(cc1OC)C(=O)N1CCC[C@H]1C=N2 (stereo not given in full) :: 1.28
O=C(N/N=C/c1ccccc1O)c1ccccc1Nc1ccnc(C(F)(F)F)c1 :: 27.6
COCc1nc2c(OC)cc(-c3nc4ccc(N5CCN(C)CC5)cc4[nH]3)c(OC)c2[nH]1 :: 47.2
O=C1C2c3[nH]c4ccccc4c3C3CCCCCCC3C2C(=O)N1c1ccccc1 (stereo not given) :: 12.8
O=C1/C(=C/c2ccccc2)CNC/C1=C\c1ccccc1 :: 5.25

* * *

Parameter TGI: see the listing below.
tested on: NCI-H522 lung; test: NCI tumour cell line growth inhibition, 48 h
Readout type: TGI (µM)

CSC(C1c2ccccc2N(c2ccc(C)cc2)C2=NC(=O)N(C)C(=O)C21Cl)S(=O)(=O)c1ccc(C)cc1 (stereo not given) :: 31.9
CC(=O)OC/C=C(/C=C/CNC1CCCCC1)OC(C)=O :: 42.1
CN(C)CCn1c(=O)c2ccc(NCCCN(C)CCCNc3ccc4c(=O)n(CCN(C)C)c(=O)n5c6ccc([N+](=O)[O-])cc6c(=O)c3c45)c3c(=O)c4cc([N+](=O)[O-])ccc4n(c1=O)c23 :: 0.134
CC(=O)OC[C@]1(C)C=C2C(=O)[C@](C)(O)C3(CC3)C(C)=C2[C@H]1O :: 0.39
c1ccc(/C(=N/Nc2ccccn2)c2ncccn2)cc1 :: 0.679
CC1(C)OC2[C@@H](CNC(=O)NC(=O)NC(=O)CI)O[C@@H](n3cnc4c(NC(=O)Nc5ccccc5)ncnc43)[C@H]2O1 (stereo not given in full) :: 1.5
COc1ccc(/C(COc2c(-c3ccccc3)oc3ccccc3c2=O)=N\O)cc1 :: 28.5
FC(F)(F)c1ccc2nc3n(c2c1)C(c1c(Cl)cccc1Cl)SC3 (stereo not given) :: 29.7
O/N=C/C1c2ccccc2-c2ccccc21 :: 33.4
COc1ccc(-c2cc(=O)c3c(OC)c(OC)c(OC)cc3o2)cc1 :: 85.3
O=C1Nc2c(C(F)(F)F)cccc2[C@]1(c1ccc(O)cc1)c1ccc(OC(F)(F)F)cc1 :: 28.5
O=C1CCCCN1CCCCC#Cc1ccccc1C#Cc1ccc([N+](=O)[O-])cc1 :: 59.5
CCCCCCCCCCNC1CC(OC2CC(O)(C(O)CO)Cc3c(O)c4c(c(O)c32)C(=O)c2c(OC)cccc2C4=O)OC(C)C1O (stereo not given) :: 3.73
COc1ccc2c(c1)CC1=C(O2)c2ccc(OC)cc2OC1 :: 35.4
COC1/C=C\C=C(/C)C(=O)NC2=CC(=O)C(=O)C(=C2O)CC(C)CC(OC)C(O)C(C)/C=C(\C)C1OC(N)=O (stereo not given) :: 18.3
COc1cc(C2=NOC(c3cc(OC)c(OC)c(OC)c3)C2)ccc1OCCCCOc1cc2c(cc1OC)C(=O)N1CCC[C@H]1C=N2 (stereo not given in full) :: 2.13
COc1ccc2c(c1)CN1C(=N2)CSC1c1ccccc1Cl (stereo not given) :: 39.2
C=C1C(=O)O[C@H]2[C@H]1CC/C(COC(=O)c1ccc3ccccc3c1)=C\CC[C@@]1(C)O[C@@H]21 :: 2.2
C=CCCCCCCCCC(=O)[O][Sn]([CH2]CCC)([CH2]CCC)[CH2]CCC :: 0.296
CN1CCN(C)C12C=c1ccccc1=CC21CC1 :: 52.9
CCCn1cnc2c(SCc3ccccc3Cl)nc(N)nc21 :: 71.1
[Cl-].[Dy+3].[O-]/N=C(\c1ccccc1)c1ccccn1.[O-]/N=C(\c1ccccc1)c1ccccn1.[O-]/N=C(\c1ccccc1)c1ccccn1 :: 65.6
CN1CCN(C(=O)OCc2nc3c(N4CCOCC4)nc(Cl)nc3n2C)CC1 :: 2.74

* * *

tested on: OVCAR-4 ovarian; experiment: NCI tumour cell line growth inhibition, 48 h; in the data active means GI50 below about 0.43 µM; inactive means the rest
Classes used: active, inactive

CC[CH2][Sn]([CH2]CC)([O]C(=O)c1cccnc1SC)[O][Sn]([CH2]CC)([CH2]CC)[O]C(=O)c1cccnc1SC :: inactive
Oc1c(CN2CCC(N3CCCCC3)CC2)cc(Cc2cc(CN3CCC(N4CCCCC4)CC3)c(O)c3ncccc23)c2cccnc12 :: inactive
CCC[CH2][Sn]([CH2]CCC)([O]C(=O)c1cccnc1SC)[O]C(=O)c1cccnc1SC :: inactive
Oc1ccc(NCc2nc3ccccc3[nH]2)cc1 :: inactive
COc1cc([N+](=O)[O-])cc2c3c(n(C)c12)[C@@]1(C)CCC2c4ccc(OCc5ccccc5)cc4CCC2C1C3 (some centres not stated) :: inactive
CCOc1cc2c(Cl)ncnc2c(OCC)c1OCC :: inactive
N#CSc1c[nH]c2cccc(/C=C/C(=O)/C=C(/C=C/c3cccc4[nH]cc(SC#N)c34)OB(F)F)c12 :: active
COc1cc(C2NC(=O)c3ccccc3N2)ccc1OCCCCCOc1c(OC)cc(C2=NOC(c3cc(OC)c(OC)c(OC)c3)C2)cc1OC (configuration not stated) :: active
[Cl-].[Dy+3].[O-]/N=C(\c1ccccc1)c1ccccn1.[O-]/N=C(\c1ccccc1)c1ccccn1.[O-]/N=C(\c1ccccc1)c1ccccn1 :: inactive
COc1ccc(/C(COc2c(-c3ccccc3)oc3ccccc3c2=O)=N\O)cc1 :: inactive
CC[C@@]1(O)C(=O)OCc2c1cc1n(c2=O)Cc2c-1nc1cc3c(cc1c2CCl)OCO3 :: inactive
O=C1CCCCN1CCCCC#Cc1ccccc1C#Cc1ccc([N+](=O)[O-])cc1 :: inactive

* * *

test system: A549 NSCLC; experiment: NCI tumour cell line growth inhibition, 48 h
Readout type: TGI

CN1CCN(C)C12C=c1ccccc1=CC21CC1 :: > 100 µM
CCOC(=O)C1=C(OC(OCC)C(CC)[Se]c2ccccc2)CCCC1 (stereo not given) :: > 100 µM
COCc1nc2c(OC)cc(-c3nc4ccc(N5CCN(C)CC5)cc4[nH]3)c(OC)c2[nH]1 :: > 100 µM
Oc1c(CN2CCC(N3CCCCC3)CC2)cc(Cc2cc(CN3CCC(N4CCCCC4)CC3)c(O)c3ncccc23)c2cccnc12 :: 5.75 µM
COc1cc(C2NC(=O)c3ccccc3N2)ccc1OCCCCCOc1c(OC)cc(C2=NOC(c3cc(OC)c(OC)c(OC)c3)C2)cc1OC (stereo not given) :: 97.7 µM
COc1ccc2c(c1)CC1=C(O2)c2ccc(OC)cc2OC1 :: > 100 µM
CSc1nc2c(c(=O)n1C)N=C(c1ccccc1)[C@H](C(CC(=O)c1ccccc1)c1ccccc1)C(c1ccccc1)N2 (stereo not given in full) :: > 100 µM
Cc1ccc(NC(=O)c2cccc(N(C)C)c2)cc1NC(=O)c1ccc(O)cc1 :: > 100 µM
O=C(O)CNS(=O)(=O)c1ccc(NCc2ccccc2)cc1 :: > 100 µM
Brc1ccc2c(-c3csc(-c4c[nH]c5ccc(Br)cc45)n3)c[nH]c2c1 :: 19 µM
COc1cc([N+](=O)[O-])cc2c3c(n(C)c12)[C@@]1(C)CCC2c4ccc(OCc5ccccc5)cc4CCC2C1C3 (stereo not given in full) :: > 100 µM
NC(=O)c1ccc(I)c(N)c1 :: > 100 µM
CNC(=O)N(CCC#N)[C@H]1CCCC[C@@H]1N(C(=O)NC)c1ccccc1 :: > 100 µM
C[C@@H]1OC(O)[C@@H](F)[C@H](O)[C@@H]1O (stereo not given in full) :: > 100 µM
O=C(CC1=NCCN1)c1ccccc1 :: > 285 µM
O=C(Cc1ccccc1)NN1C(=O)/C(=C\c2ccc([N+](=O)[O-])cc2)SC1=Nc1ccccc1 :: > 100 µM
CCOn1c(C2(CC3CCN(C(=O)c4ccccc4)CC3)OCCO2)cc2ccccc21 :: 32.4 µM
Cc1cc2c(cc1C)[n+](=O)c(C(=O)C/C(=N/NC(=O)CC#N)C(=O)Nc1ccccc1C(F)(F)F)c(C)n2[O-] :: > 100 µM
CC(C)(C)C1C=C(Sc2ccccc2)C(=O)O1 (stereo not given) :: > 100 µM
CC1(C)OC2[C@@H](CNC(=O)NC(=O)NC(=O)CI)O[C@@H](n3cnc4c(NC(=O)Nc5ccccc5)ncnc43)[C@H]2O1 (stereo not given in full) :: > 50 µM
